# Test system: 415267-285-R-J2-PDC complex spheroid viability
# procedure.details: Anticancer human tumor 415267-285-R-J2-PDC patient-derived breast carcinoma cell line growth inhibition [POLQ]
# condition.info: second compound 0.0316 µM; first compound 3.16 µM; hits give low values
readout: viability, T/C (%)
Answers are plain numbers, in %.

// solved cases for viability, T/C follow
| molecule | system.name | viability, T/C (%) |
| --- | --- | --- |
| COc1ccc([C@@H](O)c2cc(-c3ncnc4cc(N5CCOCC5)ccc34)c(F)cc2Cl)nn1 + Cc1cccc(N(C)C(=O)C2C(O)CCN2c2nc(C)cc(C(F)(F)F)c2C#N)c1 | 415267-285-R-J2-PDC complex spheroid viability | 74 |
| Nc1ccn(C2OC(CO)C(O)C2(F)F)c(=O)n1 (centres undefined) + Nc1ccc(C#CCN(C(=O)Cc2ncc(C(F)(F)F)cc2C(F)(F)F)c2ccc(F)cc2)nn1 | 415267-285-R-J2-PDC complex spheroid viability | 5.5 |
| O=C(c1cc(Cc2n[nH]c(=O)c3ccccc23)ccc1F)N1CCN(C(=O)C2CC2)CC1 + COC1C(OC(N)=O)C(O)C(Oc2ccc3c(O)c(NC(=O)c4ccc(O)c(CC=C(C)C)c4)c(=O)oc3c2C)OC1(C)C | 415267-285-R-J2-PDC complex spheroid viability | 96.5 |
| Nc1ccn(C2OC(CO)C(O)C2(F)F)c(=O)n1 (centres undefined) + Cc1cccc(N(C)C(=O)C2C(O)CCN2c2nc(C)cc(C(F)(F)F)c2C#N)c1 | 415267-285-R-J2-PDC complex spheroid viability | 5.96 |
| CCCS(=O)(=O)Nc1ccc(F)c(C(=O)c2c[nH]c3ncc(-c4ccc(Cl)cc4)cc23)c1F + COC1C(OC(N)=O)C(O)C(Oc2ccc3c(O)c(NC(=O)c4ccc(O)c(CC=C(C)C)c4)c(=O)oc3c2C)OC1(C)C | 415267-285-R-J2-PDC complex spheroid viability | 110 |
| CNCc1ccc(-c2[nH]c3cc(F)cc4c3c2CCNC4=O)cc1 + Cc1cccc(N(C)C(=O)C2C(O)CCN2c2nc(C)cc(C(F)(F)F)c2C#N)c1 | 415267-285-R-J2-PDC complex spheroid viability | 94.5 |

# batch size: 3; output viability, T/C per entry
1. COc1cccc2c1C(=O)c1c(O)c3c(c(O)c1C2=O)CC(O)(C(=O)CO)CC3OC1CC(N)C(O)C(C)O1 (centres undefined) + Cc1cccc(N(C)C(=O)C2C(O)CCN2c2nc(C)cc(C(F)(F)F)c2C#N)c1
2. CC(C)n1c(=O)n(C)c2cnc3cc(F)c(-c4ccc(OCCCN5CCCCC5)nc4)cc3c21 + COC1C(OC(N)=O)C(O)C(Oc2ccc3c(O)c(NC(=O)c4ccc(O)c(CC=C(C)C)c4)c(=O)oc3c2C)OC1(C)C
3. COc1cc2cc(C(=O)CCC(=O)O)sc2cc1OC + Cc1cccc(N(C)C(=O)C2C(O)CCN2c2nc(C)cc(C(F)(F)F)c2C#N)c1

Outgoing:
1. 1
2. 101
3. 116

---

Could you please report measured viability, T/C for the items listed next?
# System: 415267-285-R-J2-PDC complex spheroid viability
# procedure.details: Anticancer human tumor 415267-285-R-J2-PDC cell line growth inhibition [POLQ];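 further: luminescence used as stand-in measure of viable cells; spheroids exposed to compounds for one week before readout; 100% = DMSO vehicle control viability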
# condition.info: second compound 10 µM; first compound 0.1 µM; hits give low values
Numbers only, in %.

// solved cases for viability, T/C follow
| molecule | measure.unit | test.value |
| --- | --- | --- |
| O=C(Nc1ccc(O)c(NS(=O)(=O)c2ccc(F)cc2)c1)c1ccc(-c2ccccc2)cc1 + Nc1ccc(C#CCN(C(=O)Cc2ncc(C(F)(F)F)cc2C(F)(F)F)c2ccc(F)cc2)nn1 | % | 99.9 |
| CCc1cc2c(N3CCc4c(cc(Cn5ccnc5)cc4-c4cn(C)nc4C(F)(F)F)C3=O)cc(C)nc2c(OC)n1 + Nc1ccc(C#CCN(C(=O)Cc2ncc(C(F)(F)F)cc2C(F)(F)F)c2ccc(F)cc2)nn1 | % | 79.9 |
| COc1cccc2c1C(=O)c1c(O)c3c(c(O)c1C2=O)CC(O)(C(=O)CO)CC3OC1CC(N)C(O)C(C)O1 (stereo not given) + Cc1cccc(N(C)C(=O)C2C(O)CCN2c2nc(C)cc(C(F)(F)F)c2C#N)c1 | % | 9.06 |
| CC(C)n1c(=O)n(C)c2cnc3cc(F)c(-c4ccc(OCCCN5CCCCC5)nc4)cc3c21 + Nc1ccc(C#CCN(C(=O)Cc2ncc(C(F)(F)F)cc2C(F)(F)F)c2ccc(F)cc2)nn1 | % | 109 |
| CC1COCCN1c1cc(-c2ccnn2C)c2ccnc(-c3ccn[nH]3)c2n1 (stereo not given) + Nc1ccc(C#CCN(C(=O)Cc2ncc(C(F)(F)F)cc2C(F)(F)F)c2ccc(F)cc2)nn1 | % | 10.7 |
| Cn1ncnc1[C@H]1c2n[nH]c(=O)c3cc(F)cc(c23)N[C@@H]1c1ccc(F)cc1 + Cc1cccc(N(C)C(=O)C2C(O)CCN2c2nc(C)cc(C(F)(F)F)c2C#N)c1 | % | 90.5 |

# batch size: 2; output viability, T/C per entry
1. COc1cc(C2c3cc4c(cc3C(OC3OC5COC(C)OC5C(O)C3O)C3COC(=O)C23)OCO4)cc(OC)c1O (stereo not given) + Nc1ccc(C#CCN(C(=O)Cc2ncc(C(F)(F)F)cc2C(F)(F)F)c2ccc(F)cc2)nn1
2. COc1cccc(OCCCN)c1-c1cc(Nc2cnc(C#N)cn2)n[nH]1 + Nc1ccc(C#CCN(C(=O)Cc2ncc(C(F)(F)F)cc2C(F)(F)F)c2ccc(F)cc2)nn1

Outgoing:
1: 72.5; 2: 5.13

# batch size: 5; output viability, T/C per entry
1. CNCc1ccc(-c2[nH]c3cc(F)cc4c3c2CCNC4=O)cc1 + Nc1ccc(C#CCN(C(=O)Cc2ncc(C(F)(F)F)cc2C(F)(F)F)c2ccc(F)cc2)nn1
2. CCc1c2c(nc3ccc(O)cc13)-c1cc3c(c(=O)n1C2)COC(=O)[C@]3(O)CC + Nc1ccc(C#CCN(C(=O)Cc2ncc(C(F)(F)F)cc2C(F)(F)F)c2ccc(F)cc2)nn1
3. COc1cccc(OCCCN)c1-c1cc(Nc2cnc(C#N)cn2)n[nH]1 + Cc1cccc(N(C)C(=O)C2C(O)CCN2c2nc(C)cc(C(F)(F)F)c2C#N)c1
4. CCc1cc2c(N3CCc4c(cc(Cn5ccnc5)cc4-c4cn(C)nc4C(F)(F)F)C3=O)cc(C)nc2c(OC)n1 + COC1C(OC(N)=O)C(O)C(Oc2ccc3c(O)c(NC(=O)c4ccc(O)c(CC=C(C)C)c4)c(=O)oc3c2C)OC1(C)C
5. COc1cccc2c1C(=O)c1c(O)c3c(c(O)c1C2=O)CC(O)(C(=O)CO)CC3OC1CC(N)C(O)C(C)O1 (stereo not given) + COC1C(OC(N)=O)C(O)C(Oc2ccc3c(O)c(NC(=O)c4ccc(O)c(CC=C(C)C)c4)c(=O)oc3c2C)OC1(C)C

Outgoing:
97.6
2.88
10.2
85.9
16

# batch size: 2; output viability, T/C per entry
1. CCc1c2c(nc3ccc(O)cc13)-c1cc3c(c(=O)n1C2)COC(=O)[C@]3(O)CC + COC1C(OC(N)=O)C(O)C(Oc2ccc3c(O)c(NC(=O)c4ccc(O)c(CC=C(C)C)c4)c(=O)oc3c2C)OC1(C)C
2. Cn1ncnc1[C@H]1c2n[nH]c(=O)c3cc(F)cc(c23)N[C@@H]1c1ccc(F)cc1 + Nc1ccc(C#CCN(C(=O)Cc2ncc(C(F)(F)F)cc2C(F)(F)F)c2ccc(F)cc2)nn1

Outgoing:
1: 4.24; 2: 105

Source listed as PubChem BioAssay AID1963847.
